- Tested on: HT29 colon
- method-notes: NCI tumour cell line growth inhibition, 48 h
Please note: yes applies when TGI is 5 µM or greater, and no applies otherwise.

Clc1ccc2c(c1)-c1ccccc1C1=NCCN12 ... no
O=C1C(=O)c2ccccc2C(O)=C1CCCCCCCCC1CCCCC1 ... yes
C/C=C/C=C\C1OC(O)([C@H](CC)C(=O)NC/C=C/C=C(\C)[C@H](OC)C(C)C2OC(\C=C/C=C/C=C(\C)C(=O)c3c(O)ccn(C)c3=O)[C@H](O)[C@@H]2O)C(O)C(O)C1(C)C (stereo not given in full) ... yes

Prompt: Form field: TGI at least 5 µM? Entry: O=C(N/C(=C\c1ccc(Oc2ccc(Cl)c(Cl)c2)cc1)c1nc2ccccc2[nH]1)c1ccccc1
Completion: yes

Prompt: Then CN1CCn2c(c(Sc3ccc(C(=O)NO)cc3)c3ccccc32)C1=O ?
Completion: yes

Prompt: How about O=C1CCCC1NC(=O)C(F)(F)F (stereo not given) ?
Completion: yes

Prompt: Next up: CS/C(c1ccccc1)=[N+](/C)[O-]
Completion: yes

Prompt: Would you mind doing N#CC(NNC(=O)c1ccccc1O)c1ccccc1 (stereo not given) as well?
Completion: yes

Prompt: Quick one: C=CCN=C1NC(=O)C(CC(=O)Nc2ccc(C)cc2)S1 (stereo not given)
Completion: yes

Prompt: Queued: CN1CCN(CCCCN2c3ccccc3Sc3ccc(N=[N+]=[N-])cc32)CC1
Completion: no

* * *

- System: DMS 114 small cell lung
- method-notes: NCI tumour cell line growth inhibition, 48 h
quantity: TGI (µM)
I only need the number, in µM, no unit after it.

C/C(=N\NC(=S)NNC(=S)N(C)c1ccccc1)c1ccccn1 ... 12.6
C[CH2][Sn]([CH2]C)([O]C(=O)c1cccc(F)c1)[O][Sn]([CH2]C)([CH2]C)[O]C(=O)c1cccc(F)c1 ... 27.3

// switching to the query compound
Prompt: Suppose we examine the compound COc1cc2cccc(NC(=O)c3cc(OC)c(OC)c(OC)c3Br)c2cc1OC ; what TGI value has been reported?
Completion: 12.8

* * *

# TGI annotations
- Tested on: A549 NSCLC
- method-notes: NCI tumour cell line growth inhibition, 48 h

Here are 5 compounds together with their reported answers.
CCOc1ccccc1NC(=O)C1=C(C)NC(C)=C(C(=O)Nc2ccccc2OCC)C1c1ccc(NC(C)=O)cc1 ... > 100 µM
OCCNCCNc1c2ccccc2nc2oc3ccccc3c12 ... 35.7 µM
CC(C)(C)c1cc(C(=O)/C=C/c2ccc3c(c2)CCO3)cc(C(C)(C)C)c1O ... 22.9 µM
[C-]#[N+]C(C)(C)C[C@H]1CC(C)C2CCC(C)C3([N+]#[C-])CCC(=C)C1[C@H]23 (stereo partly drawn) ... 21.7 µM
O=CC1C[C@@H](N2C(=O)O[C@@H](c3ccccc3)[C@H]2c2ccccc2)[C@@H]1COCc1ccccc1 (stereo partly drawn) ... > 100 µM

Prompt: I am curious: what TGI value has been reported for COC(=O)CCC(C)C1CCC2C3CCC4CC5CCC4(C)C3(O5)C(Br)C(Br)C12C (stereo not drawn) ?
Completion: > 100 µM

Prompt: Next: O=C(OC(/C=C/c1ccccc1)P1(=O)N(Cc2ccccc2)[C@@H]2CCCC[C@H]2N1Cc1ccccc1)c1ccccc1 (stereo partly drawn)
Completion: > 100 µM
